- Tested on: HepG2
- experiment-description: cells
- conditions-used: Homo sapiens, HepG2, 72 h
Decide using IC50 alone. Strictly below 10 µM: YES. Equal to or above 10 µM: NO.

Worked cases, answers included:
C=CC(=O)Nc1cc(Cn2ncc3ccncc32)ccc1F ... NO
CC(C)=CC(=O)Nc1ccc(Cn2cnc3c(Cl)ncnc32)cc1 ... NO
C=CC(=O)Nc1ccc(Cn2cnc3c(Cl)ncnc32)cc1 ... YES
C=CC(=O)Nc1ccc(Cn2cnc3c(-c4cc5ccccc5o4)ncnc32)cc1 ... NO

Please examine the following record next.
Input `COc1cc(CCc2cc(NC(=O)c3ccc(N4C[C@@H](C)N[C@@H](C)C4)cc3)n[nH]2)cc(OC)c1` ; condition: IC50 strictly below 10 µM. Does it hold?
YES

----------
- experiment-description: Metabolic stability in rat liver microsomes assessed as parent compound remaining at 1 uM measured after 30 mins by LC-MS/MS analysis
- Type: ADME, Microsome
- conditions-used: read-out: Stability
measured-endpoint: remaining at 0.5 h, 1 µM (%)
Provide the reading as a plain figure in %.

O=C(c1ccc(F)cc1)C1CCN(CCn2c(=O)[nH]c3ccccc3c2=O)CC1 ... 24.5

Shifting focus to the compound that follows.
Record request: remaining at 0.5 h, 1 µM value, item `C=CC(=O)Nc1ccc(Cn2cnc3c(-c4cc(OC)cc(OC)c4)ncnc32)cc1`
18.6

----------
- experiment-description: Metabolic stability in mouse liver microsomes assessed as parent compound remaining at 1 uM measured after 30 mins by LC-MS/MS analysis
- Type: ADME, Microsome
- conditions-used: read-out: Stability
Overview of reported remaining at 0.5 h, 1 µM across a group of compounds:
Provide the reading as a plain figure in %.

C=CC(=O)Nc1ccc(Cn2cnc3c(-c4cc(OC)cc(OC)c4)ncnc32)cc1 ... 8.63

Shifting focus to the compound that follows.
Record request: remaining at 0.5 h, 1 µM value, item `O=C(c1ccc(F)cc1)C1CCN(CCn2c(=O)[nH]c3ccccc3c2=O)CC1`
18.3

----------
Overview of reported IC50 at 72 h across a group of molecules:
- experiment-description: in vitro
- conditions-used: human, HUVEC cells
- Description: Cytotoxicity against HUVEC cells assessed as inhibition of cell growth incubated for 72 hrs by MTT assay
Provide the reading as a plain figure in µM.

// below: answered molecules
C=CC(=O)Nc1cc(Cn2cnc3ccc(Cl)nc32)ccc1F ... 64.5
C=CC(=O)Nc1ccc(Cn2cnc3c(Cl)ncnc32)cc1 ... 50.5
COc1cc(CCc2cc(NC(=O)c3ccc(N4C[C@@H](C)N[C@@H](C)C4)cc3)n[nH]2)cc(OC)c1 [FEXAGRATINIB] ... 38
C=CC(=O)Nc1ccc(Cn2cnc3c(-c4cc5ccccc5s4)ncnc32)cc1 ... 79.1

Shifting focus to the molecule that follows.
Record request: IC50 at 72 h value, item `C=CC(=O)Nc1cc(Cn2ncc3ccc(Br)cc32)ccc1F`
69.7

----------
- experiment-description: in vitro
- conditions-used: human, HUVEC cells
measured-endpoint: IC50 at 72 h
A bare number is not enough; add the unit after it.

// below: answered molecules
C=CC(=O)Nc1cc(Cn2ccc3ccc(Br)cc32)ccc1F ... 76.5 µM
C=CC(=O)Nc1cc(Cn2cnc3c(Cl)ncnc32)ccc1F ... 71.4 µM
C=CC(=O)Nc1ccc(Cn2cnc3c(-c4cccs4)ncnc32)cc1 ... 77.2 µM
C=CC(=O)Nc1cc(Cn2ncc3ccncc32)ccc1F ... 54.6 µM
C=CC(=O)Nc1cc(Cn2ccc3ncnc(Cl)c32)ccc1F ... 79.3 µM
CC(C)=CC(=O)Nc1ccc(Cn2cnc3c(Cl)ncnc32)cc1 ... 77.1 µM

Record request: IC50 at 72 h value, item `C=CC(=O)Nc1cc(Cn2nnc3c(C(=O)OC)cccc32)ccc1F`
64.2 µM

Record request: IC50 at 72 h value, item `C=CC(=O)Nc1ccc(Cn2cnc3c(-c4cc5ccccc5o4)ncnc32)cc1`
79.2 µM

----------
- experiment-description: in vitro
- conditions-used: human, HUVEC cells
measured-endpoint: IC50 at 72 h (µM)
Provide the reading as a plain figure in µM.

C=CC(=O)Nc1ccc(C(=O)n2ccc3cc(Cl)cnc32)cc1 ... 80.4
C=CC(=O)Nc1ccc(C(=O)n2ncc3cccnc32)cc1 ... 82.2
C=CC(=O)Nc1ccc(Cn2cnc3c(-c4ccc(F)c(F)c4)ncnc32)cc1 ... 75.2
C=CC(=O)Nc1cc(Cn2nnc3c(C(=O)NCC4CC(F)(F)C4)cccc32)ccc1F ... 46.2
C=CC(=O)Nc1cc(Cn2ccc3c(Cl)ccnc32)ccc1F ... 54.4

Shifting focus to the compound that follows.
Record request: IC50 at 72 h value, item `C=CC(=O)Nc1cc(Cn2ccc3c(Cl)ncnc32)ccc1F`
60.3

----------
- study-system: Fibroblast growth factor receptor 3 (Homo sapiens)
- Sequence (P22607 whole entry): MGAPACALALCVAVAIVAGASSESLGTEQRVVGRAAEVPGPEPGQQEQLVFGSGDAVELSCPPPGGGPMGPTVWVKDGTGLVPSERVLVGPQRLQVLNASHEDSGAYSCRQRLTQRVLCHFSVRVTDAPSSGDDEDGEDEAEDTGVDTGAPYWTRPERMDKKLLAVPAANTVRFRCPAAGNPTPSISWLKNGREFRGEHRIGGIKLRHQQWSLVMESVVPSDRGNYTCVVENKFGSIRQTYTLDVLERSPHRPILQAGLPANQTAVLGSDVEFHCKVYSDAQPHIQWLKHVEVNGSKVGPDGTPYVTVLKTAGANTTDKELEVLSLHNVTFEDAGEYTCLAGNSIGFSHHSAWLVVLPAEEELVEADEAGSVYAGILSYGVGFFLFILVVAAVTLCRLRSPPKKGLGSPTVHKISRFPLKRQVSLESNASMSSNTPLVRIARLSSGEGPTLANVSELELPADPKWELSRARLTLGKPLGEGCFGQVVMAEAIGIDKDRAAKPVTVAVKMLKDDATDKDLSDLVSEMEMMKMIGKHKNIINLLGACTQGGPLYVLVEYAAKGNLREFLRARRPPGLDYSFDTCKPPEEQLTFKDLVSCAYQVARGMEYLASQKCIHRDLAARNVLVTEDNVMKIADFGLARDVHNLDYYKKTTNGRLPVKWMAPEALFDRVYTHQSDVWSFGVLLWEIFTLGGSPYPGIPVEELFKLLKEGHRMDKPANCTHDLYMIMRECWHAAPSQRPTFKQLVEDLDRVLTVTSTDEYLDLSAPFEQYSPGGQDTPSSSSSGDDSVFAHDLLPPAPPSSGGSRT
measured-endpoint: IC50 (nM)
Provide the reading as a plain figure in nM.

Find the measured IC50: item `C=CC(=O)Nc1ccc(Cn2cnc3c(-c4cc(OC)cc(OC)c4)ncnc32)cc1` , target or system Fibroblast growth factor receptor 3 (Homo sapiens).
0.64

----------
- experiment-description: in vitro
- conditions-used: human, HUVEC cells
measured-endpoint: IC50 at 72 h

// below: answered molecules
C=CC(=O)Nc1cc(Cn2nnc3c(C(=O)NCC(F)F)cccc32)ccc1F ... 50.9 µM
O=C(Nc1ccc(Cn2cnc3c(Cl)ncnc32)cc1)C1CC1 ... 81.2 µM
C=CC(=O)Nc1cc(Cn2ccc3cc(Br)cnc32)ccc1F ... 75.5 µM
CC(C)C(=O)Nc1ccc(Cn2cnc3c(Cl)ncnc32)cc1 ... 79.6 µM
C=CC(=O)Nc1ccc(C(=O)n2ccc3c(Cl)ncnc32)cc1 ... 56.1 µM
C=CC(=O)Nc1cc(Cn2cnc3cnc(Cl)nc32)ccc1F ... 57.1 µM

Record request: IC50 at 72 h value, item `C=C(C)C(=O)Nc1ccc(Cn2cnc3c(Cl)ncnc32)cc1`
80.9 µM

Record request: IC50 at 72 h value, item `C=CC(=O)Nc1ccc(Cn2cnc3c(-c4ccccc4)ncnc32)cc1`
81.3 µM

Record request: IC50 at 72 h value, item `C=CC(=O)Nc1ccc(C(=O)n2ncc3ccc(Br)cc32)cc1`
81 µM

Record request: IC50 at 72 h value, item CC(Cl)C(=O)Nc1ccc(Cn2cnc3c(Cl)ncnc32)cc1 (stereo unspecified)
81.8 µM

Record request: IC50 at 72 h value, item `CCC(=O)Nc1ccc(Cn2cnc3c(Cl)ncnc32)cc1`
80.1 µM

----------
- Test system: HepG2
- experiment-description: cells
- conditions-used: Homo sapiens, HepG2, 72 h
Decide using IC50 alone. Strictly below 20 µM: Criterion met. Equal to or above 20 µM: Criterion not met.

Worked cases, answers included:
C=CC(=O)Nc1ccc(C(=O)n2ccc3c(Cl)ncnc32)cc1 ... Criterion not met
C=CC(=O)Nc1ccc(C(=O)n2ccc3cc(Br)cnc32)cc1 ... Criterion not met
C=CC(=O)Nc1cc(Cn2ccc3c(Cl)ccnc32)ccc1F ... Criterion not met

Input `CCC(=O)Nc1ccc(Cn2cnc3c(Cl)ncnc32)cc1` ; condition: IC50 strictly below 20 µM. Does it hold?
Criterion not met

Input `C=CC(=O)Nc1cc(Cn2ccc3cc(Br)cnc32)ccc1F` ; condition: IC50 strictly below 20 µM. Does it hold?
Criterion not met

Input `C=CC(=O)Nc1cc(Cn2nnc3c(C(=O)NCC4CC(F)(F)C4)cccc32)ccc1F` ; condition: IC50 strictly below 20 µM. Does it hold?
Criterion not met

Input `C=C(C)C(=O)Nc1ccc(Cn2cnc3c(Cl)ncnc32)cc1` ; condition: IC50 strictly below 20 µM. Does it hold?
Criterion not met

Input `C=CC(=O)Nc1ccc(C(=O)n2ncc3ccc(Br)cc32)cc1` ; condition: IC50 strictly below 20 µM. Does it hold?
Criterion not met

Input `C=CC(=O)Nc1ccc(Cn2cnc3c(-c4cc5ccccc5s4)ncnc32)cc1` ; condition: IC50 strictly below 20 µM. Does it hold?
Criterion met

Input CC(Cl)C(=O)Nc1ccc(Cn2cnc3c(Cl)ncnc32)cc1 (stereo unspecified) ; condition: IC50 strictly below 20 µM. Does it hold?
Criterion met

Input `C=CC(=O)Nc1ccc(C(=O)n2ccc3cc(Cl)cnc32)cc1` ; condition: IC50 strictly below 20 µM. Does it hold?
Criterion not met

Input `O=C(CCl)Nc1ccc(Cn2cnc3c(Cl)ncnc32)cc1` ; condition: IC50 strictly below 20 µM. Does it hold?
Criterion not met

----------
- Tested on: MDA-MB-231
- experiment-description: cells
- conditions-used: Homo sapiens, MDA-MB-231, 72 h
measured-endpoint: pIC50
Scale note: pIC50 = -log10(concentration in M).

// below: answered molecules
O=C(Nc1ccc(Cn2cnc3c(Cl)ncnc32)cc1)C1CC1 ... 5.02
C=CC(=O)Nc1cc(Cn2nnc3c(C(=O)NCC4CC(F)(F)C4)cccc32)ccc1F ... 5.00
C=CC(=O)Nc1cc(Cn2ccc3cc(Br)cnc32)ccc1F ... 4.43
C=CC(=O)Nc1ccc(C(=O)n2ncc3cccnc32)cc1 ... 4.57
COc1cc(CCc2cc(NC(=O)c3ccc(N4C[C@@H](C)N[C@@H](C)C4)cc3)n[nH]2)cc(OC)c1 ... 5.14
CCC(=O)Nc1ccc(Cn2cnc3c(Cl)ncnc32)cc1 ... 5.10

Find the measured pIC50: item `C=CC(=O)Nc1ccc(C(=O)n2ccc3c(Cl)ncnc32)cc1` , target or system MDA-MB-231.
4.53

Find the measured pIC50: item `C=CC(=O)Nc1ccc(C(=O)n2ccc3cc(Cl)cnc32)cc1` , target or system MDA-MB-231.
4.46

The measurements presented in this section are drawn from ChEMBL document CHEMBL5500360.
